ASSAY_INFO: Half life in dogs administered perorally (5 mg/kg) and intravenously (2 mg/kg)
Type: ADME, organism-based, Canis lupus familiaris
MEASUREMENT_CONDITIONS: dog, in vivo
TEST_READOUT: half-life (min)

[[record]]
molecule_smiles = "CC(C)(c1cc2cnccc2o1)N1CCN(C[C@@H](O)C[C@@H](Cc2ccccc2)C(=O)N[C@H]2c3ccccc3OC[C@H]2O)[C@H](C(=O)NCC(F)(F)F)C1"
display_unit = "min"
value_observed = 52


---

Listed compounds paired with reported IC95
Tested on: Human immunodeficiency virus 1
ASSAY_INFO: Potency against PI-resistant virus HIV NL-4
Format: functional
MEASUREMENT_CONDITIONS: read-out: CIC95
TEST_READOUT: IC95 (µM)

[[record]]
molecule_smiles = "CC(C)(C)NC(=O)[C@@H]1CN(C(C)(C)c2cc3cnccc3o2)CCN1C[C@@H](O)C[C@@H](Cc1ccccc1)C(=O)N[C@H]1c2ccccc2OC[C@H]1O"
display_unit = "µM"
measurement_qualifier = "="
value_observed = 0.0092

[[record]]
molecule_smiles = "CC(C)(C)NC(=O)[C@@H]1CN(Cc2cccnc2)CCN1C[C@@H](O)C[C@@H](Cc1ccccc1)C(=O)N[C@H]1c2ccccc2C[C@H]1O"
display_unit = "µM"
measurement_qualifier = "="
value_observed = 0.05

[[record]]
molecule_smiles = "CC(C)(c1cc2cnccc2o1)N1CCN(C[C@@H](O)C[C@@H](Cc2ccccc2)C(=O)N[C@H]2c3ccccc3OC[C@H]2O)[C@H](C(=O)NCC(F)(F)F)C1"
display_unit = "µM"
measurement_qualifier = "≤"
value_observed = 0.008

[[record]]
molecule_smiles = "O=C(N[C@H]1c2ccccc2C[C@H]1O)[C@H](Cc1ccccc1)C[C@H](O)CN1CCN(Cc2cccnc2)C[C@H]1C(=O)NCC(F)(F)F"
display_unit = "µM"
measurement_qualifier = "="
value_observed = 0.062


Data provenance is ChEMBL document CHEMBL1134901.
